test system: NCI/ADR-RES ovarian; experiment: NCI-60 one-dose screen, 48 h; conditions: 10 µM unless noted
About 83,000 compounds went through this panel and 20% of them were active in at least one assay; those are over-represented in the sample as a whole. Calls of active or inactive are those of the source. How the source made its calls: active means growth percent below 10; inactive means the rest.
// classify into active, inactive

Known results for molecules:
* COc1cccc(-c2cn3nc(-c4cn(C)c5ccccc45)sc3n2)c1 | inactive
* O=S(=O)(Nc1cc(F)cc(F)c1)c1ccc(-c2cnc(C3CC3)o2)cc1 | inactive
* O=S(=O)(Nc1cc(Sc2nc3ccccc3s2)c(O)c2ccccc12)c1ccc2ccccc2c1 | inactive
* COc1ccc(/C=N/NC(=O)Cn2c(-c3ccc(S(C)(=O)=O)cc3)nc3ccccc32)cc1 | inactive
* N#Cc1c(-c2ccccc2)nc2c(c(-c3ccc(Cl)cc3)nn2-c2ccccc2)c1-c1ccc([N+](=O)[O-])cc1 | inactive
* COc1ccc(C(c2cc(OC)c(OC)c(OC)c2)N2CCCCC2)cc1 (centres undefined) | inactive
* Nc1ccc(Br)cc1C(F)(F)F | inactive
* CCCOC(=O)Nc1nc2ccc(SCC)cc2s1 | inactive
* Nc1cc(C(=O)O)cc(-n2c(O)c(C=C3N=c4ccccc4=N3)sc2=S)c1 | inactive
* Nc1ccc(-c2ccncc2)cc1NC(=O)N1CCCC1 | inactive

[in] Which result was noted for this molecule in the test: COc1ccc(Oc2ccc(/C=C/C(=O)c3ccc(OC)c(OC)c3)cc2)cc1
[out] inactive

[in] Hello, I am checking results. What call was entered for CCOC(=O)CC[C@H](NC(=O)c1ccc(N(C)Cc2cnc3nc(N)nc(N)c3n2)c2ccccc12)C(=O)OCC ?
[out] inactive

[in] Recorded call for COC(=O)c1ccc2cc(OC)c(OC)cc2c1 ?
[out] inactive

[in] What did this assay record as the result for O=C(Cc1ccc(/C=C/C(=O)c2ncc[nH]2)cc1)Nc1cc(F)c(F)c(F)c1 ?
[out] inactive

[in] What outcome does the record of this test show for COc1ccc(-c2nc3ccc(C)cc3c3c2c(=O)n(C)c(=O)n3C)cc1OC ?
[out] inactive

[in] Outcome logged for COc1cc(-c2nccc3[nH]c(-c4cccc5[nH]ccc45)nc23)cc(OC)c1OC in this assay:
[out] active

[in] # outcome recorded in this test, key = COc1ccc2cc(C(=O)N3CCC([C@@H](C)C(=O)NCc4ccc5c(c4)OCO5)CC3)[nH]c2c1
[out] inactive

[in] Entry COc1ccc2c(c1)oc1c(C)c3c(c(C)c12)C(=O)N(CCOS(C)(=O)=O)C3=O : call = ?
[out] inactive

[in] Test call for this molecule, please: Oc1c(I)cc(I)cc1CN(Cc1ccccn1)Cc1ccccn1
[out] active
